System: NRG-mice bearing LNCaP tumors
test_name: Biodistribution (and PET/SPECT imaging) in NRG-mice bearing LNCaP tumors
Type: in vivo
recorded_conditions: 72 h p.i., Avg
*1 amine or outer side, *2 acyl side, *3 side chain or, on linkers, in order; H or OH if unused. Where a SMILES comes first, the peptide text is derived from it. [ ]: non-standard residue; d: D form. The star is where a group is joined. ξ: configuration not given here. ξLys(Nα-CO-ξAad) = O=C(O)CCCC(NC(=O)NC(CCCCN*)C(=O)O)C(=O)O; Butanoyl(4-(4-NO2Ph)) = O=C(CCCc1ccc([N+](=O)[O-])cc1)*; DOTA = O=C(O)CN1CCN(CC(=O)O)CCN(CC(=O)*)CCN(CC(=O)O)CC1; ξAla(9-anthryl) = NC(Cc1c2ccccc2cc2ccccc12)C(=O)O; X1 = O=C(C1CCC(CN[*:1])CC1)[*:2]; ξK = NCCCCC(N)C(=O)O
endpoint_name: Biodistribution: Muscle (% ID/g)
All answers are understood in % ID/g, so give the number only.

Would you mind telling me what Biodistribution: Muscle value was observed for COc1ccc(CCCC(=O)NCC(=O)NC(CCCCNC(=O)CN2CCN(CC(=O)[O-])CCN(CC(=O)[O-])CCN(CC(=O)[O-])CC2)CC(=O)NCC2CCC(C(=O)NC(Cc3c4ccccc4cc4ccccc34)C(=O)NCCCCC(NC(=O)NC(CC(F)C(=O)O)C(=O)O)C(=O)O)CC2)cc1.[177Lu+3] (stereo not shown) [^177Lu-CCZ02019] ?
0.04

I would be grateful if you could share the reported Biodistribution: Muscle for O=C([O-])CN1CCN(CC(=O)[O-])CCN(CC(=O)NCCCCC(NC(=O)CNC(=O)CCCc2ccc([N+](=O)[O-])cc2)C(=O)NCC(=O)NCC2CCC(C(=O)NC(Cc3c4ccccc4cc4ccccc34)C(=O)NCCCCC(NC(=O)NC(CCCC(=O)O)C(=O)O)C(=O)O)CC2)CCN(CC(=O)[O-])CC1.[225Ac+3] (stereo not shown) [^225Ac-CCZ02017] ({Butanoyl(4-(4-NO2Ph))}-G[ξK](DOTA)G[X1][ξAla(9-anthryl)]-{ξLys(Nα-CO-ξAad)}) .
0.04

Which Biodistribution: Muscle reading was recorded for the molecule O=C([O-])CN1CCN(CC(=O)[O-])CCN(CC(=O)NCCCCC(NC(=O)CNC(=O)CCCc2ccc([N+](=O)[O-])cc2)C(=O)NCC(=O)NCC2CCC(C(=O)NC(Cc3c4ccccc4cc4ccccc34)C(=O)NCCCCC(NC(=O)NC(CCCC(=O)O)C(=O)O)C(=O)O)CC2)CCN(CC(=O)[O-])CC1.[177Lu+3] (stereo not shown) [^177Lu-CCZ02017] ({Butanoyl(4-(4-NO2Ph))}-G[ξK](DOTA)G[X1][ξAla(9-anthryl)]-{ξLys(Nα-CO-ξAad)}) ?
0.02

// query Biodistribution: Muscle value for entry COc1ccc(CCCC(=O)NCC(=O)NC(CCCCNC(=O)CN2CCN(CC(=O)[O-])CCN(CC(=O)[O-])CCN(CC(=O)[O-])CC2)C(=O)NCC2CCC(C(=O)NC(Cc3c4ccccc4cc4ccccc34)C(=O)NCCCCC(NC(=O)NC(CCCC(=O)O)C(=O)O)C(=O)O)CC2)cc1.[177Lu+3] (stereo not shown) [^177Lu-HTK03170, reference compound]
0.15

====

Answer each item with its documented Biodistribution: Seminal gland.
System: NRG-mice bearing LNCaP tumors
test_name: Biodistribution (and PET/SPECT imaging) in NRG-mice bearing LNCaP tumors
Assay type: in vivo
recorded_conditions: 3 h p.i., Avg
*1 amine or outer side, *2 acyl side, *3 side chain or, on linkers, in order; H or OH if unused. Where a SMILES comes first, the peptide text is derived from it. [ ]: non-standard residue; d: D form. The star is where a group is joined. ξ: configuration not given here. ξLys(Nα-CO-ξAad) = O=C(O)CCCC(NC(=O)NC(CCCCN*)C(=O)O)C(=O)O; Butanoyl(4-(4-NO2Ph)) = O=C(CCCc1ccc([N+](=O)[O-])cc1)*; DOTA = O=C(O)CN1CCN(CC(=O)O)CCN(CC(=O)*)CCN(CC(=O)O)CC1; Butanoyl(4-(4-MeO-phenyl)) = COc1ccc(CCCC(=O)*)cc1; ξAla(9-anthryl) = NC(Cc1c2ccccc2cc2ccccc12)C(=O)O; X1 = O=C(C1CCC(CN[*:1])CC1)[*:2]; ξK = NCCCCC(N)C(=O)O
Kindly answer with a numeric value in % ID/g, unit omitted.

Entry under review: O=C([O-])CN1CCN(CC(=O)[O-])CCN(CC(=O)NCCCCC(NC(=O)CNC(=O)CCCc2ccc([N+](=O)[O-])cc2)C(=O)NCC(=O)NCC2CCC(C(=O)NC(Cc3c4ccccc4cc4ccccc34)C(=O)NCCCCC(NC(=O)NC(CCCC(=O)O)C(=O)O)C(=O)O)CC2)CCN(CC(=O)[O-])CC1.[225Ac+3] (stereo not drawn) [^225Ac-CCZ02017] ({Butanoyl(4-(4-NO2Ph))}-G[ξK](DOTA)G[X1][ξAla(9-anthryl)]-{ξLys(Nα-CO-ξAad)}) . Reported Biodistribution: Seminal gland?
2.26

Look up Biodistribution: Seminal gland for this compound: COc1ccc(CCCC(=O)NCC(=O)NC(CCCCNC(=O)CN2CCN(CC(=O)[O-])CCN(CC(=O)[O-])CCN(CC(=O)[O-])CC2)C(=O)NCC(=O)NCC2CCC(C(=O)NC(Cc3c4ccccc4cc4ccccc34)C(=O)NCCCCC(NC(=O)NC(CCCC(=O)O)C(=O)O)C(=O)O)CC2)cc1.[68Ga+3] (stereo not drawn) [^68Ga-CCZ02009] ({Butanoyl(4-(4-MeO-phenyl))}-G[ξK](DOTA)G[X1][ξAla(9-anthryl)]-{ξLys(Nα-CO-ξAad)})
1.73

Need Biodistribution: Seminal gland of COc1ccc(CCCC(=O)NCC(=O)NC(CCCCNC(=O)CN2CCN(CC(=O)[O-])CCN(CC(=O)[O-])CCN(CC(=O)[O-])CC2)CC(=O)NCC2CCC(C(=O)NC(Cc3c4ccccc4cc4ccccc34)C(=O)NCCCCC(NC(=O)NC(CCCC(=O)O)C(=O)O)C(=O)O)CC2)cc1.[68Ga+3] (stereo not drawn) [^68Ga-CCZ02015] , thanks.
1.63

====

Consider the following molecules; for each one, report its Ki.
measured_on: PSMA (Homo sapiens, UniProt Q04609)
Construct: endogenous in cells
Sequence (Q04609 whole entry): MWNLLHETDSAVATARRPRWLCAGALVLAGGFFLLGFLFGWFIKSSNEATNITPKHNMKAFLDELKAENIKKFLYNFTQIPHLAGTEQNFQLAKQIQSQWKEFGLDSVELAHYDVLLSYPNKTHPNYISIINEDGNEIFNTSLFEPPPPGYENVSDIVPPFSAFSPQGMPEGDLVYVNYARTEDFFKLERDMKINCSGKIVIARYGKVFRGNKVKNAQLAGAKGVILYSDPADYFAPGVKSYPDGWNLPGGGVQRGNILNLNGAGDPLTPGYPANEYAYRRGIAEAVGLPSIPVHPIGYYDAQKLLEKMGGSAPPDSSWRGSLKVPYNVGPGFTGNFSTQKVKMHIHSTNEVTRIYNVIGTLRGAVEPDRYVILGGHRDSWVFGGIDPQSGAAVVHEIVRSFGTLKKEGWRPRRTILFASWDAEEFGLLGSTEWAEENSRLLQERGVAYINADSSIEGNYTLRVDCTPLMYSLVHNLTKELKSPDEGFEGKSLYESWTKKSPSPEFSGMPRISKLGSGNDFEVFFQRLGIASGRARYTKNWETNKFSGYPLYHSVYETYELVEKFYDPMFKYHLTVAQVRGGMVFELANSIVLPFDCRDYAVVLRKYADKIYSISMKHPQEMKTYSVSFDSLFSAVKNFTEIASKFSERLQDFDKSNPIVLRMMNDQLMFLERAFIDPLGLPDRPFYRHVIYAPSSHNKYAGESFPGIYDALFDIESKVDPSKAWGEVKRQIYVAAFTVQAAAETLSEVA
test_name: In vitro PSMA competitive binding assay, LNCaP cells, [18F]DCFPyL radioligand
recorded_conditions: [18F]DCFPyL 0.1 nM, read-out: PSMA binding affinity (Ki)
*1 amine or outer side, *2 acyl side, *3 side chain or, on linkers, in order; H or OH if unused. Where a SMILES comes first, the peptide text is derived from it. [ ]: non-standard residue; d: D form. The star is where a group is joined. AadUreaLys(Nε) = O=C(O)CCC[C@H](NC(=O)N[C@@H](CCCCN*)C(=O)O)C(=O)O; X4 = O=C(N[C@@H](CCCCN*)C(=O)O)N[C@@H](C[C@@H](F)C(=O)O)C(=O)O; Butanoyl(4-(4-NO2Ph)) = O=C(CCCc1ccc([N+](=O)[O-])cc1)*; DOTA = O=C(O)CN1CCN(CC(=O)O)CCN(CC(=O)*)CCN(CC(=O)O)CC1; EuK = O=C(O)CC[C@H](NC(=O)N[C@@H](CCCCN*)C(=O)O)C(=O)O; Ala(9-anthryl) = N[C@@H](Cc1c2ccccc2cc2ccccc12)C(=O)O; Butanoyl(4-(4-MeO-phenyl)) = COc1ccc(CCCC(=O)*)cc1; X1 = O=C(C1CCC(CN[*:1])CC1)[*:2]
Could you give me the number in nM? Just the number is fine.

Which Ki is reported for this molecule? COc1ccc(CCCC(=O)NCC(=O)N[C@@H](CCCCNC(=O)COCCOCCNC(=O)CN2CCN(CC(N)=O)CCN(CC(=O)O)CCN(CC(=O)O)CC2)C(=O)NCC2CCC(C(=O)N[C@@H](Cc3c4ccccc4cc4ccccc34)C(=O)NCCCC[C@H](NC(=O)N[C@@H](CCCC(=O)O)C(=O)O)C(=O)O)CC2)cc1 (stereo partly drawn) [CCZ02005]
2.08

Field request: Ki | item: COc1ccc(CCCC(=O)NCC(=O)N[C@@H](CCCCNC(=O)CN2CCN(CC(=O)O)CCN(CC(=O)O)CCN(CC(=O)O)CC2)C(=O)NCC(=O)NCC2CCC(C(=O)N[C@@H](Cc3c4ccccc4cc4ccccc34)C(=O)NCCCC[C@H](NC(=O)N[C@@H](CCCC(=O)O)C(=O)O)C(=O)O)CC2)cc1 (stereo partly drawn) [CCZ02009] ({Butanoyl(4-(4-MeO-phenyl))}-GK(DOTA)G[X1][Ala(9-anthryl)]-{AadUreaLys(Nε)})
0.12

Returns the measured Ki for the input molecule. Input: O=C(O)CN1CCN(CC(=O)O)CCN(CC(=O)NCCCC[C@H](NC(=O)CNC(=O)CCCc2ccc([N+](=O)[O-])cc2)C(=O)NCC(=O)NCC2CCC(C(=O)N[C@@H](Cc3c4ccccc4cc4ccccc34)C(=O)NCCCC[C@H](NC(=O)N[C@@H](C[C@@H](F)C(=O)O)C(=O)O)C(=O)O)CC2)CCN(CC(=O)O)CC1 (stereo partly drawn) [CCZ02025] ({Butanoyl(4-(4-NO2Ph))}-GK(DOTA)G[X1][Ala(9-anthryl)]-X4)
0.59

Give its Ki value. Item: COc1ccc(CCCC(=O)NCC(=O)N[C@@H](CCCCNC(=O)CN2CCN(CC(=O)O)CCN(CC(=O)O)CCN(CC(=O)O)CC2)C(=O)NCC(=O)NCC(=O)NCC2CCC(C(=O)N[C@@H](Cc3c4ccccc4cc4ccccc34)C(=O)NCCCC[C@H](NC(=O)N[C@@H](CCCC(=O)O)C(=O)O)C(=O)O)CC2)cc1 (stereo partly drawn) [CCZ02060] ({Butanoyl(4-(4-MeO-phenyl))}-GK(DOTA)GG[X1][Ala(9-anthryl)]-{AadUreaLys(Nε)})
1.09

Reported Ki for O=C(O)CC[C@H](NC(=O)N[C@@H](CCCCNC(=O)[C@H](Cc1c2ccccc2cc2ccccc12)NC(=O)C1CCC(CNC(=O)CNC(=O)[C@H](CCCCNC(=O)CN2CCN(CC(=O)O)CCN(CC(=O)O)CCN(CC(=O)O)CC2)NC(=O)CNC(=O)CCCc2ccc([N+](=O)[O-])cc2)CC1)C(=O)O)C(=O)O (stereo partly drawn) [CCZ02024] ({Butanoyl(4-(4-NO2Ph))}-GK(DOTA)G[X1][Ala(9-anthryl)]-EuK) : what is it?
1.54

Which Ki is listed for COc1ccc(CCCC(=O)NCC(=O)N[C@@H](CCCCNC(=O)CN2CCN(CC(=O)O)CCN(CC(=O)O)CCN(CC(=O)O)CC2)CC(=O)NCC2CCC(C(=O)N[C@@H](Cc3c4ccccc4cc4ccccc34)C(=O)NCCCC[C@H](NC(=O)N[C@@H](CCCC(=O)O)C(=O)O)C(=O)O)CC2)cc1 (stereo partly drawn) [CCZ02015] ?
1.09
